Documented Human Plasma Anticoagulation 2× Clotting time PT across a set of compounds
Test system: Human plasma
Assay: Human plasma anticoagulation, prothrombin time (PT)
Format: biochemical
Details: concentration required to double the PT, linear extrapolation
measurement_label: Human Plasma Anticoagulation 2× Clotting time PT

>  <compound>
CCS(=O)(=O)N[C@H](Cc1ccccc1)C(=O)N1CCC[C@H]1C(=O)NCCCc1cccc(C(=N)N)c1 [Example 31]

>  <recorded_measurement>
30,000 ng/mL

$$$$
>  <compound>
CCS(=O)(=O)N[C@@H](C(=O)N1[C@H](C(=O)NCc2ccc(C(=N)N)cc2)C[C@@H]2CCCC[C@@H]21)c1ccccc1 (relative stereo) [Example 44]

>  <recorded_measurement>
170 ng/mL

$$$$
>  <compound>
N=C(N)c1ccc(CNC(=O)[C@@H]2CCCN2C(=O)[C@@H](CC2CCCCC2)NCCC(=O)O)cc1 [Example 52]

>  <recorded_measurement>
170 ng/mL

$$$$
>  <compound>
N=C(N)Nc1cccc(CCNC(=O)[C@@H]2CCCN2C(=O)[C@@H]2NCC[C@@H]3CCCC[C@@H]32)c1 [Example 41]

>  <recorded_measurement>
> 91,000 ng/mL

$$$$
>  <compound>
O=C(O)CN[C@H](CC1CCCCC1)C(=O)N1CCC[C@H]1C(=O)NCCC1CCNCC1 [Example 54]

>  <recorded_measurement>
2,200 ng/mL

$$$$
>  <compound>
NCC1CCC(CNC(=O)[C@@H]2CCCN2C(=O)[C@@H](CC2CCCCC2)NCC(=O)O)CC1 (some centres unmarked) [Example 79]

>  <recorded_measurement>
2,400 ng/mL

$$$$
>  <compound>
NCc1ccc(CNC(=O)[C@@H]2CCCN2C(=O)[C@@H](CC2CCCCC2)NCC(=O)O)cc1 [Example 78]

>  <recorded_measurement>
760 ng/mL

$$$$
>  <compound>
N=C(N)c1cccc(CCCNC(=O)[C@@H]2CCCN2C(=O)[C@@H]2NCC[C@@H]3CCCC[C@@H]32)c1 [Example 33]

>  <recorded_measurement>
70,900 ng/mL

$$$$
